// provenance: PubChem BioAssay

- Study system: Beta-2 adrenergic receptor (Homo sapiens) (UniProt P07550)
- Sequence (P07550 whole entry, looked up): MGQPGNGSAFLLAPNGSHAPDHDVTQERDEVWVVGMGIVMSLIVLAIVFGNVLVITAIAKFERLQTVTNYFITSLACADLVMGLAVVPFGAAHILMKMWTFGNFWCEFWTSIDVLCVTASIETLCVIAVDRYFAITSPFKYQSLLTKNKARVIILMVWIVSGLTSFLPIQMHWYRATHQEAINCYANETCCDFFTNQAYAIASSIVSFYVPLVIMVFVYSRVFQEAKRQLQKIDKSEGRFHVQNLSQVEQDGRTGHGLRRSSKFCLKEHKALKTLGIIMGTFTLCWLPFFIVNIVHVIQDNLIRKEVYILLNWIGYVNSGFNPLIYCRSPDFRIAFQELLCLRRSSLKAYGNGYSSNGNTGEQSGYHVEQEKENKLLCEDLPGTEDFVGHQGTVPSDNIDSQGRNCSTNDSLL
- Experimental protocol: agonist-induced loss of surface beta2AR – cell-based, FAP fluorogen, flow cytometry, validation set, pilot screen (AID 504459);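 also: agonist-driven loss of surface beta2AR via internalization measured by FAP dye flow cytometry; reference of the scale not given here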
- Test settings: Am2.2-beta2AR cells, at 10 µM, active compounds read high
Reported endpoint: response (%)
Answers are plain numbers, in %.

Examples with their reported response follow.
{"Compound": "CC1(C)Cc2nc3sc4c(=O)n(CC(N)=O)cnc4c3cc2CO1", "Study system": "Beta-2 adrenergic receptor (Homo sapiens) (UniProt P07550)", "Data value": -4.57}
{"Compound": "O=C(NCc1ccc(N2CCCC2=O)cc1)c1cccc(Cl)c1", "Study system": "Beta-2 adrenergic receptor (Homo sapiens) (UniProt P07550)", "Data value": -4.33}
{"Compound": "CN/C(=C/[N+](=O)[O-])NCCSCc1ccc(CN(C)C)o1", "Study system": "Beta-2 adrenergic receptor (Homo sapiens) (UniProt P07550)", "Data value": 2.38}
{"Compound": "CCOC(=O)C1(Cc2cccc(Cl)c2)CCCN(C2CCN(C(C)=O)CC2)C1 (stereo unspecified)", "Study system": "Beta-2 adrenergic receptor (Homo sapiens) (UniProt P07550)", "Data value": -8.31}

Quick batch: response for everything below.
1. N/C(=N\OC(=O)CCCOc1ccc(Cl)cc1Cl)c1ccncc1
2. Cc1ccnc(NS(=O)(=O)c2ccc(N)cc2)n1
3. O=C(O)C1CCN(C(=O)COc2ccc3c4c(c(=O)oc3c2)CCC4)CC1
4. O=C(O)CCCCCN1C(=O)C(=O)/C(=C(/O)c2ccccc2)C1c1ccccc1 (stereo unspecified)
5. CC(/C=C1\SC(=O)N(CCCC(=O)O)C1=O)=C\c1ccccc1
6. C=CCNC(=O)c1ccc(-c2cccc([N+](=O)[O-])c2)o1
7. CC(=O)NC1C(OCc2ccccc2)OC(COC(C)=O)C(OC(C)=O)C1OC(C)=O (stereo unspecified)

1: -12.7; 2: 5.51; 3: -31; 4: -2.6; 5: -6.06; 6: 9.11; 7: 1.83
